B1: MEF2-activating motif and SAP domain-containing transcriptional regulator, residues 170 to 204; numbered along this chain, Q6ZN01 (parent)
chain: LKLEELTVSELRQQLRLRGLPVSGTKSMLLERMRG

- Variants of: B1
- Protocol: abundance fitness (aPCA) (normalised: wild type 0, dead -1); higher = more abundant; growth selection in yeast, the domain comes from the species named
- Test settings: Homo sapiens
abundance fitness values by entry
Readout name: abundance fitness

>  <Variant key>
S27T

>  <Readout name>
abundance fitness

>  <Reported value>
-0.108

$$$$
>  <Variant key>
R16Y

>  <Readout name>
abundance fitness

>  <Reported value>
-0.613

$$$$
>  <Variant key>
S27R

>  <Readout name>
abundance fitness

>  <Reported value>
-0.154

$$$$
>  <Variant key>
V8N

>  <Readout name>
abundance fitness

>  <Reported value>
-0.387

$$$$
>  <Variant key>
T25D

>  <Readout name>
abundance fitness

>  <Reported value>
0.215

$$$$
>  <Variant key>
R16P

>  <Readout name>
abundance fitness

>  <Reported value>
-0.96

$$$$
>  <Variant key>
R12V

>  <Readout name>
abundance fitness

>  <Reported value>
-0.304

$$$$
>  <Variant key>
V8L

>  <Readout name>
abundance fitness

>  <Reported value>
-0.099

$$$$
>  <Variant key>
M33A

>  <Readout name>
abundance fitness

>  <Reported value>
-0.161

$$$$
>  <Variant key>
R16W

>  <Readout name>
abundance fitness

>  <Reported value>
-0.129

$$$$
>  <Variant key>
R16S

>  <Readout name>
abundance fitness

>  <Reported value>
-0.095

$$$$
